Documented pIC50 across a set of molecules
- studyTarget: human recombinant BACE1 (Homo sapiens, UniProt P56817)
- Sequence (P56817 46-501): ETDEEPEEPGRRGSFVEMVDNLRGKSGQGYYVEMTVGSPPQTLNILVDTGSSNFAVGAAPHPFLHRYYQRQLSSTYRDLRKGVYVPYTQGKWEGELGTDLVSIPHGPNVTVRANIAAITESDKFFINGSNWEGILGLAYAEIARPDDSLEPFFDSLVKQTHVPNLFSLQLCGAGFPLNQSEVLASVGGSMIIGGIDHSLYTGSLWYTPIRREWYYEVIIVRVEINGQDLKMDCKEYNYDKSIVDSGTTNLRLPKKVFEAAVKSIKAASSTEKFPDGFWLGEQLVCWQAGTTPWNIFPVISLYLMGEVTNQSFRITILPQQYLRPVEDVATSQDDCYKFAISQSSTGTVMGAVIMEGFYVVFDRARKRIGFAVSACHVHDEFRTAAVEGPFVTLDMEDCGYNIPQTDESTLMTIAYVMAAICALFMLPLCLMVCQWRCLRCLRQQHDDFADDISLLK
- assayExplanation: β-secretase inhibition, human recombinant BACE1 assay kit (PanVera), fluorescence
- recordedConditions: β-secretase (BACE)
pIC50: −log10 of the molar value.
reportedEndpoint: pIC50

{"molecule": "Oc1cc(O)c2c(c1)Oc1c(O)cc3oc4cc(O)cc(O)c4c3c1O2 [Chemical Formula 3-1]", "reported": 8.24}
{"molecule": "Oc1cc(O)cc(Oc2c(O)cc(O)c3c2oc2cc(O)c4c(c23)Oc2c(O)cc(O)cc2O4)c1 [Chemical Formula 3-2]", "reported": 8.77}
{"molecule": "Oc1cc(O)cc(Oc2c(O)cc3c(c2O)Oc2c(c(O)cc4oc5c(Oc6cc(O)cc(O)c6)c(O)cc(O)c5c24)O3)c1 [Chemical Formula 3-6]", "reported": 8.89}
{"molecule": "Oc1cc(O)cc(Oc2c(O)cc(O)c3c2Oc2c(O)cc4oc5cc(O)cc(O)c5c4c2O3)c1 [Chemical Formula 3-4]", "reported": 8.82}
{"molecule": "Oc1cc(O)cc(Oc2c(O)cc(O)c3c2Oc2c(cc4oc5cc(O)cc(O)c5c4c2O)O3)c1 [Chemical Formula 4-3]", "reported": 8.40}
{"molecule": "Oc1cc(O)c2c(c1)Oc1c(cc3oc4cc(O)cc(O)c4c3c1O)O2 [Chemical Formula 4-1]", "reported": 8.33}
{"molecule": "Oc1cc(O)cc(Oc2c(O)cc(O)c3c2oc2cc4c(c(O)c23)Oc2cc(O)cc(O)c2O4)c1 [Chemical Formula 4-2]", "reported": 8.44}
{"molecule": "Oc1cc(O)cc(Oc2c(O)cc(O)c3c2Oc2c(cc4oc5c(Oc6cc(O)cc(O)c6)c(O)cc(O)c5c4c2O)O3)c1 [Chemical Formula 4-4]", "reported": 8.62}
